The reported numbers originate from ChEMBL document CHEMBL5291721.

Molecular target: Alpha-2C adrenergic receptor (Homo sapiens, UniProt P18825); also: assay procedure not described here
Sequence (P18825 whole entry): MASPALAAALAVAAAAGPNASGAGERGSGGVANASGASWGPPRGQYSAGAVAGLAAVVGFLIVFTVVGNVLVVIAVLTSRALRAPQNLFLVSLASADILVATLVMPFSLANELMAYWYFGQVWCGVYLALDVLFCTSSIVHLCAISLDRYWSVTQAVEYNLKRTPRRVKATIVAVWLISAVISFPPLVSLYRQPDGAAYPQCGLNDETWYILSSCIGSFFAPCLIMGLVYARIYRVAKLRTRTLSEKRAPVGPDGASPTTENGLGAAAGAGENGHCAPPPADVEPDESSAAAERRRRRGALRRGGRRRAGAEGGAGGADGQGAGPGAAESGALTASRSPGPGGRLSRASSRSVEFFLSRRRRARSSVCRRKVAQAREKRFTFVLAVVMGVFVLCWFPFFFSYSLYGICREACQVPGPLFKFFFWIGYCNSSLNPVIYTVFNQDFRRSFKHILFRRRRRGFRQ
Type: functional
Answer each item with its documented AC50.

Enter AC50 (test system Alpha-2C adrenergic receptor (Homo sapiens, UniProt P18825)) for CCC(=O)O[C@H]1CC[C@H]2[C@@H]3CCC4=CC(=O)CC[C@]4(C)[C@H]3CC[C@]12C [TESTOSTERONE PROPIONATE]; also: assay procedure not described here
> 10 µM

Enter AC50 (test system Alpha-2C adrenergic receptor (Homo sapiens, UniProt P18825)) for `CN(C(=O)c1c(O)c2ccccc2n(C)c1=O)c1ccccc1`; also: assay procedure not described here
> 30 µM

Enter AC50 (test system Alpha-2C adrenergic receptor (Homo sapiens, UniProt P18825)) for `C/N=C(\NC)NCc1ccccc1`; also: assay procedure not described here
> 30 µM

Enter AC50 (test system Alpha-2C adrenergic receptor (Homo sapiens, UniProt P18825)) for C=CC[C@@H]1/C=C(\C)C[C@H](C)C[C@H](OC)[C@H]2O[C@@](O)(C(=O)C(=O)N3CCCC[C@H]3C(=O)O[C@H](/C(C)=C/[C@@H]3CC[C@@H](O)[C@H](OC)C3)[C@H](C)[C@@H](O)CC1=O)[C@H](C)C[C@@H]2OC [TACROLIMUS ANHYDROUS]; also: assay procedure not described here
> 30 µM

----------
Lab note: AC50 readings collected with Muscarinic acetylcholine receptor M3 (Homo sapiens, UniProt P20309) for the following compounds.
Sequence (P20309 whole entry): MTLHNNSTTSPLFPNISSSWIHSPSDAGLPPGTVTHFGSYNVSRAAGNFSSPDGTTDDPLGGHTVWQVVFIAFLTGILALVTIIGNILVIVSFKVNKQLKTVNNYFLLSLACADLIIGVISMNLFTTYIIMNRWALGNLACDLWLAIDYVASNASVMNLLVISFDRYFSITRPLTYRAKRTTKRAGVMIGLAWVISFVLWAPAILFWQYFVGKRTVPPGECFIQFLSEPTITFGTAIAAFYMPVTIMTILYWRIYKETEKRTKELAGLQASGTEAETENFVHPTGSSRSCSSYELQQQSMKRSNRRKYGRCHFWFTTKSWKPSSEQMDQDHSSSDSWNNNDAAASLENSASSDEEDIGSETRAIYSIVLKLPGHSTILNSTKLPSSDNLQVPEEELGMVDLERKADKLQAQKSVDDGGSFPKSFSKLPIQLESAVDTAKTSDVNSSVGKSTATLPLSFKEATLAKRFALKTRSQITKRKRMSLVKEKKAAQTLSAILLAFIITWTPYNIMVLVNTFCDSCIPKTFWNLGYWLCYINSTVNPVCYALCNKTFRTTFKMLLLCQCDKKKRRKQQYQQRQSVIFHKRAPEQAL

Using the record for CC(C)[C@H](N)C(=O)OCC(CO)OCn1cnc2c(=O)nc(N)[nH]c21 (stereo partly drawn) [VALGANCICLOVIR] , state its measured AC50.
> 30 µM

Using the record for CC(C)COCC(CN(Cc1ccccc1)c1ccccc1)N1CCCC1 (stereo not drawn) [BEPRIDIL] , state its measured AC50.
17 µM

Using the record for CC12CC3CC(C)(C1)CC(N)(C3)C2 [MEMANTINE] , state its measured AC50.
> 30 µM

Using the record for CCC(=O)O[C@]1(C(=O)SCF)[C@H](C)C[C@H]2[C@@H]3C[C@H](F)C4=CC(=O)C=C[C@]4(C)[C@@]3(F)[C@@H](O)C[C@@]21C [FLUTICASONE PROPIONATE] , state its measured AC50.
> 30 µM

Using the record for CC(=O)OCC(=O)[C@@]1(O)[C@H](C)C[C@H]2[C@@H]3CCC4=CC(=O)C=C[C@]4(C)[C@@]3(F)[C@@H](O)C[C@@]21C [DEXAMETHASONE ACETATE] , state its measured AC50.
> 30 µM

Using the record for Clc1ccc(C(Cn2ccnc2)OCc2ccsc2Cl)c(Cl)c1 (stereo not drawn) [TIOCONAZOLE] , state its measured AC50.
26 µM

Using the record for CN1CCC(=C2c3ccccc3CCc3cccnc32)CC1 [AZATADINE] , state its measured AC50.
> 30 µM

Using the record for OC1(c2ccc(Cl)cc2)c2ccccc2C2=NCCN21 (stereo not drawn) [MAZINDOL] , state its measured AC50.
> 30 µM

Using the record for CC(=O)O[C@]1(C(C)=O)CC[C@H]2[C@@H]3C=C(C)C4=CC(=O)CC[C@@H]4[C@H]3CC[C@@]21C [NOMEGESTROL ACETATE] , state its measured AC50.
> 30 µM

Using the record for CCN1CCN(Cc2ccc(Nc3ncc(F)c(-c4cc(F)c5nc(C)n(C(C)C)c5c4)n3)nc2)CC1 [ABEMACICLIB] , state its measured AC50.
> 30 µM

Using the record for `C[N@+]1(CCF)[C@@H]2CC[C@H]1C[C@@H](OC(=O)C(O)(c1ccccc1)c1ccccc1)C2` , state its measured AC50.
0.0031 µM

Using the record for CC(C)N(CCC(C(N)=O)(c1ccccc1)c1ccccn1)C(C)C (stereo not drawn) [DISOPYRAMIDE] , state its measured AC50.
> 30 µM

Using the record for COc1cc2c(cc1OC)C(CCc1ccc(Cl)cc1)N(C)CC2 (stereo not drawn) [METHOPHOLINE] , state its measured AC50.
> 30 µM
